Reported pIC50 values follow for various compounds
Molecular target: MCH R1 (melanine-concentrating hormone receptor-1) (Homo sapiens)
Construct: purchased Euroscreen, Gosselies, Belgium
Assay: Inhibitory effects on MCH R1 binding (Eu-MCH time-resolved fluorescence binding assay)
Conditions: concentration inhibiting the binding of MCH (Eu-MCH, 2 nM) to MCH R1 by 50% in vitro; TRF readout; test range 1 nM to 10 μM; read-out: IC50
Description: First, MCH R1 (melanine-concentrating hormone receptor-1; Euroscreen, Gosselies, Belgium), 1 μM Europium-labeled melanine-concentrating hormone (Eu-MCH, PerkinElmer, Turku, Finland) and 1 mM melanine-concentrating hormone (MCH, #070-47, Phoenix, Belmont Calif., USA) were kept at 4° C. for ready use. […]
pIC50: −log10 of the molar value.
REPORTED ENDPOINT: pIC50

compound="CC(=O)Nc1cccc(C2CCN(CCCn3c(-c4ccc(Oc5ccccc5)cc4)nc4ccccc43)CC2)c1 [Example 47]" test_system="MCH R1 (melanine-concentrating hormone receptor-1) (Homo sapiens)" observed_measurement=7.38
compound="CC(=O)Nc1cccc(C2CCN(CCCn3c(-c4cccnc4)nc4cc([N+](=O)[O-])ccc43)CC2)c1 [Example 117]" test_system="MCH R1 (melanine-concentrating hormone receptor-1) (Homo sapiens)" observed_measurement=8.52
compound="CCCCc1nc2cc(-c3ccccn3)c(C)nc2n1CCCN1CCC(c2cccc(NC(=O)C(C)C)c2)CC1 [Example 101]" test_system="MCH R1 (melanine-concentrating hormone receptor-1) (Homo sapiens)" observed_measurement=7.40
compound="CC(=O)Nc1cccc(C2CCN(CCCn3c(-c4ccccc4)nc4ccc(C)nc43)CC2)c1 [Example 69]" test_system="MCH R1 (melanine-concentrating hormone receptor-1) (Homo sapiens)" observed_measurement=7.66

###

Biological target: MCH R1 (melanine-concentrating hormone receptor-1) (Homo sapiens)
Construct: purchased Euroscreen, Gosselies, Belgium
Experiment: Inhibitory effects on MCH R1 binding (Eu-MCH time-resolved fluorescence binding assay)
Conditions: concentration inhibiting the binding of MCH (Eu-MCH, 2 nM) to MCH R1 by 50% in vitro; TRF readout; test range 1 nM to 10 μM; read-out: IC50
pIC50: −log10 of the molar value.
REPORTED ENDPOINT: pIC50

molecule=CCCCc1nc2cc(-c3ccccc3)c(C=O)nc2n1CCCN1CCC(c2cccc(NC(=O)C(C)C)c2)CC1 test_system="MCH R1 (melanine-concentrating hormone receptor-1) (Homo sapiens)" observed_measurement=6.59
molecule=CC(=O)Nc1cccc(C2CCN(CCCCCn3c(-c4ccc(Cl)cc4)nc4ccccc43)CC2)c1 test_system="MCH R1 (melanine-concentrating hormone receptor-1) (Homo sapiens)" observed_measurement=7.49
molecule=CC(=O)Nc1cccc(C2CCN(CCCn3c(-c4cccc(Cl)c4)nc4ccc(Cl)cc43)CC2)c1 test_system="MCH R1 (melanine-concentrating hormone receptor-1) (Homo sapiens)" observed_measurement=8.15
molecule=CC(=O)Nc1cccc(C2CCN(CCCn3c(-c4ccccc4)nc4nc(C)c(Br)cc43)CC2)c1 test_system="MCH R1 (melanine-concentrating hormone receptor-1) (Homo sapiens)" observed_measurement=6.17
molecule=CC(=O)Nc1cccc(C2CCN(CCCn3c(-c4cc(F)c(F)c(F)c4F)nc4ccccc43)CC2)c1 test_system="MCH R1 (melanine-concentrating hormone receptor-1) (Homo sapiens)" observed_measurement=7.11
molecule=CC(=O)Nc1cccc(C2CCN(CCCn3c(-c4cccc(C)c4)nc4ccccc43)CC2)c1 test_system="MCH R1 (melanine-concentrating hormone receptor-1) (Homo sapiens)" observed_measurement=7.70
molecule=CCc1ccc(-c2nc3ccccc3n2CCCN2CCC(c3cccc(NC(C)=O)c3)CC2)cc1 test_system="MCH R1 (melanine-concentrating hormone receptor-1) (Homo sapiens)" observed_measurement=7.22
molecule=CC(=O)Nc1cccc(C2CCN(CCCn3c(-c4ccccc4Cl)nc4ccccc43)CC2)c1 test_system="MCH R1 (melanine-concentrating hormone receptor-1) (Homo sapiens)" observed_measurement=8.00
molecule=CC(=O)Nc1cccc(C2CCN(CCCn3c(-c4cccc(Br)c4)nc4ccccc43)CC2)c1 test_system="MCH R1 (melanine-concentrating hormone receptor-1) (Homo sapiens)" observed_measurement=9.00
molecule=CC(=O)Nc1cccc(C2CCN(CCCn3c(-c4ccoc4)nc4ccccc43)CC2)c1 test_system="MCH R1 (melanine-concentrating hormone receptor-1) (Homo sapiens)" observed_measurement=7.60
molecule=CC(=O)Nc1cccc(C2CCN(CCCn3c(-c4ccc(F)c(F)c4)nc4ccccc43)CC2)c1 test_system="MCH R1 (melanine-concentrating hormone receptor-1) (Homo sapiens)" observed_measurement=8.40
molecule=CC(=O)Nc1cccc(C2CCN(CCCn3c(-c4ccc(C)s4)nc4ccccc43)CC2)c1 test_system="MCH R1 (melanine-concentrating hormone receptor-1) (Homo sapiens)" observed_measurement=7.85
molecule=CC(=O)Nc1cccc(C2CCN(CCCn3c(-c4ccc(F)cc4)nc4ccccc43)CC2)c1 test_system="MCH R1 (melanine-concentrating hormone receptor-1) (Homo sapiens)" observed_measurement=7.25
molecule=CC(=O)Nc1cccc(C2CCN(CCCn3c(-c4ccc(Cl)cc4)nc4ccc(C#N)cc43)CC2)c1 test_system="MCH R1 (melanine-concentrating hormone receptor-1) (Homo sapiens)" observed_measurement=7.15
molecule=CC(=O)Nc1cccc(C2CCN(CCCCn3c(-c4ccccc4)nc4ccccc43)CC2)c1 test_system="MCH R1 (melanine-concentrating hormone receptor-1) (Homo sapiens)" observed_measurement=7.54
molecule=CC(=O)Nc1cccc(C2CCN(CCCn3c(-c4cccc(Cl)c4)nc4ccc([N+](=O)[O-])cc43)CC2)c1 test_system="MCH R1 (melanine-concentrating hormone receptor-1) (Homo sapiens)" observed_measurement=6.20
molecule=CC(=O)Nc1cccc(C2CCN(CCCn3c(-c4ccc(Cl)cc4)nc4cc(C)cc(C)c43)CC2)c1 test_system="MCH R1 (melanine-concentrating hormone receptor-1) (Homo sapiens)" observed_measurement=6.71
molecule=CC(=O)Nc1cccc(C2CCN(CCCn3c(-c4ccccc4)nc4ccc(Cl)cc43)CC2)c1 test_system="MCH R1 (melanine-concentrating hormone receptor-1) (Homo sapiens)" observed_measurement=8.00
molecule=CC(=O)Nc1cccc(C2CCN(CCCn3c(-c4ccc(C#N)cc4)nc4cc(C)c(C)cc43)CC2)c1 test_system="MCH R1 (melanine-concentrating hormone receptor-1) (Homo sapiens)" observed_measurement=7.00
molecule=CC(=O)Nc1cccc(C2CCN(CCCn3c(-c4ccc(F)cc4)nc4cc(Cl)ccc43)CC2)c1 test_system="MCH R1 (melanine-concentrating hormone receptor-1) (Homo sapiens)" observed_measurement=7.30
molecule=Cc1nc2ccccc2n1CCCN1CCC(c2cccc(NC(=O)C(C)C)c2)CC1 test_system="MCH R1 (melanine-concentrating hormone receptor-1) (Homo sapiens)" observed_measurement=7.10
molecule=CC(=O)Nc1cccc(C2CCN(CCCn3c(-c4cncc(Br)c4)nc4ccccc43)CC2)c1 test_system="MCH R1 (melanine-concentrating hormone receptor-1) (Homo sapiens)" observed_measurement=8.30
molecule=CC(=O)Nc1cccc(C2CCN(CCCn3c(-c4cccc(C#N)c4)nc4ccccc43)CC2)c1 test_system="MCH R1 (melanine-concentrating hormone receptor-1) (Homo sapiens)" observed_measurement=7.82
molecule=CC(=O)Nc1cccc(C2CCN(CCCn3c(-c4cccnc4)nc4ccccc43)CC2)c1 test_system="MCH R1 (melanine-concentrating hormone receptor-1) (Homo sapiens)" observed_measurement=7.22
molecule=COc1ccc(-c2nc3ccccc3n2CCCN2CCC(c3cccc(NC(C)=O)c3)CC2)c(OC)c1 test_system="MCH R1 (melanine-concentrating hormone receptor-1) (Homo sapiens)" observed_measurement=7.66
molecule=CC(=O)Nc1cccc(C2CCN(CCCn3c(-c4ccc(C(C)C)cc4)nc4ccccc43)CC2)c1 test_system="MCH R1 (melanine-concentrating hormone receptor-1) (Homo sapiens)" observed_measurement=7.72
molecule=CCCCc1nc2cc(-c3ccc([N+](=O)[O-])cc3)c(C)nc2n1CCCN1CCC(c2cccc(NC(=O)C(C)C)c2)CC1 test_system="MCH R1 (melanine-concentrating hormone receptor-1) (Homo sapiens)" observed_measurement=7.70
molecule=CC(=O)Nc1cccc(C2CCN(CCCn3c(-c4cccc(C(N)=O)c4)nc4ccccc43)CC2)c1 test_system="MCH R1 (melanine-concentrating hormone receptor-1) (Homo sapiens)" observed_measurement=7.96
molecule=CC(=O)Nc1cccc(C2CCN(CCCn3c(C)nc4cc(Br)c(C)nc43)CC2)c1 test_system="MCH R1 (melanine-concentrating hormone receptor-1) (Homo sapiens)" observed_measurement=6.73
molecule=CC(=O)Nc1cccc(C2CCN(CCCn3c(-c4cccc([N+](=O)[O-])c4)nc4ccccc43)CC2)c1 test_system="MCH R1 (melanine-concentrating hormone receptor-1) (Homo sapiens)" observed_measurement=8.10
molecule=COc1ccccc1-c1nc2ccccc2n1CCCN1CCC(c2cccc(NC(C)=O)c2)CC1 test_system="MCH R1 (melanine-concentrating hormone receptor-1) (Homo sapiens)" observed_measurement=6.13

###

Molecular target: MCH R1 (melanine-concentrating hormone receptor-1) (Homo sapiens, UniProt Q99705)
Construct: purchased Euroscreen, Gosselies, Belgium
Sequence (Q99705 whole entry, species assumed): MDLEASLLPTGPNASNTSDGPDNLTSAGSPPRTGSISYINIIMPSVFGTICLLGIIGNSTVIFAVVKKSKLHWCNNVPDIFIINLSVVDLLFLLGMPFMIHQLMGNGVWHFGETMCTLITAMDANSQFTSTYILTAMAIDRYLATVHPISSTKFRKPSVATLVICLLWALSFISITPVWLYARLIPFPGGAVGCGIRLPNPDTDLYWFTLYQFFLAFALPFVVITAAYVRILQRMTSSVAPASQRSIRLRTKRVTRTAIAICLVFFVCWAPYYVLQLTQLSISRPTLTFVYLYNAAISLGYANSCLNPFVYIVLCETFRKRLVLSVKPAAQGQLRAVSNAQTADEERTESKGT
Test: Inhibitory effects on MCH R1 binding (Eu-MCH time-resolved fluorescence binding assay)
Settings: concentration inhibiting the binding of MCH (Eu-MCH, 2 nM) to MCH R1 by 50% in vitro; TRF readout; test range 1 nM to 10 μM; read-out: IC50
REPORTED ENDPOINT: log10(IC50) (log10 of the value in nM)

molecule=COc1ccc2nc(-c3ccccc3)n(CCCN3CCC(c4cccc(NC(C)=O)c4)CC3)c2c1 observed_measurement=1.04
molecule=CC(=O)Nc1cccc(C2CCN(CCCn3c(-c4ccc(Cl)cc4F)nc4cc(C)c(C)cc43)CC2)c1 observed_measurement=2.38
molecule=CC(=O)Nc1cccc(C2CCN(CCCn3c(-c4ocnc4C)nc4ccccc43)CC2)c1 observed_measurement=0.48
molecule=CC(=O)Nc1cccc(C2CCN(CCCn3c(-c4ccccc4)nc4ccc(C)cc43)CC2)c1 observed_measurement=1.20
molecule=CC(=O)Nc1cccc(C2CCN(CCCn3c(-c4ccccc4)nc4ccccc43)CC2)c1 observed_measurement=0.30
molecule=CC(=O)Nc1cccc(C2CCN(CCCn3c(-c4ccncc4)nc4ccccc43)CC2)c1 observed_measurement=2.18
molecule=CC(=O)Nc1cccc(C2CCN(CCCn3c(-c4ccccc4)nc4ccc(F)cc43)CC2)c1 observed_measurement=0.85
molecule=CC(=O)Nc1cccc(C2CCN(CCCn3c(-c4ccc(C)nc4)nc4ccccc43)CC2)c1 observed_measurement=1.62
molecule=CC(=O)Nc1cccc(C2CCN(CCCn3c(C)nc4cc(C)c(C)cc43)CC2)c1 observed_measurement=1.78
molecule=CCCCc1nc2c(C)cc(C)nc2n1CCCN1CCC(c2cccc(NC(C)=O)c2)CC1 observed_measurement=1.95
molecule=CC(=O)Nc1cccc(C2CCN(CCCn3c(-c4ccccc4)nc4ccc([N+](=O)[O-])cc43)CC2)c1 observed_measurement=1.00
molecule=CC(=O)Nc1cccc(C2CCN(CCCn3c(-c4ccc(Cl)cc4)nc4ccc(F)cc43)CC2)c1 observed_measurement=1.04
molecule=CC(=O)Nc1cccc(C2CCN(CCCn3c(-c4ccc(Cl)cc4)nc4ccccc43)CC2)c1 observed_measurement=0.00
molecule=CC(=O)Nc1cccc(C2CCN(CCCn3c(-c4ccccc4)nc4ccncc43)CC2)c1 observed_measurement=2.41
molecule=CCCCc1nc2c(C)c(-c3ccccc3)c(C)nc2n1CCCN1CCC(c2cccc(NC(C)=O)c2)CC1 observed_measurement=1.78
